Ref: ChEMBL document CHEMBL1151249

# maps each entry to its Activity
Tested on: Cryptococcus neoformans
protocolNotes: Antifungal activity against Cryptococcus neoformans assessed as 99.9 % growth inhibition after 18 hrs by zone-of-inhibition assay
Type: functional
measuredEndpoint: Activity (µg/mL)

molecule="COc1cc2c[n+](C)c3c4cc5c(cc4ccc3c2cc1OC)OCO5.[Cl-] [NITIDINE CHLORIDE]" measuredendpoint=Activity relationqualifier== valuereported=300
molecule="Cc1cc(O)c2c(c1)[C@@H](O)CCC2=O [4S-SHINANOLONE]" measuredendpoint=Activity relationqualifier=> valuereported=1000
molecule="CC12C(=O)c3cccc(O)c3C(=O)C1CC1=C2C(=O)c2c(O)cccc2C1=O (stereo not given) [ZEYLANONE]" measuredendpoint=Activity relationqualifier== valuereported=100
molecule="CC1=CC(=O)c2c(ccc(C3=C(C)C(=O)c4cccc(O)c4C3=O)c2O)C1=O [CHITRANONE]" measuredendpoint=Activity relationqualifier== valuereported=10
molecule=COC1=CC(=O)c2cc(C)cc(O)c2C1=O measuredendpoint=Activity relationqualifier=> valuereported=1000
molecule=COC(=O)c1c(O)cc(C)cc1O measuredendpoint=Activity relationqualifier=> valuereported=1000
molecule="CC1=CC(=O)c2c(O)ccc(-c3ccc(O)c4c3C(=O)C(C)=CC4=O)c2C1=O [MARITINONE]" measuredendpoint=Activity relationqualifier== valuereported=200
molecule=COc1c(O)cc2ccc(=O)oc2c1OC measuredendpoint=Activity relationqualifier=> valuereported=1000
molecule="Cc1cc(O)c2c(c1)C(=O)C=CC2=O [RAMENTACEONE]" measuredendpoint=Activity relationqualifier== valuereported=1
molecule="COc1cc2ccc(=O)oc2cc1O [SCOPOLETIN]" measuredendpoint=Activity relationqualifier=> valuereported=1000
